# target.or.system: Bcl-2-related protein A1 (Homo sapiens) (UniProt Q16548)
# Sequence (Q16548 whole entry, looked up): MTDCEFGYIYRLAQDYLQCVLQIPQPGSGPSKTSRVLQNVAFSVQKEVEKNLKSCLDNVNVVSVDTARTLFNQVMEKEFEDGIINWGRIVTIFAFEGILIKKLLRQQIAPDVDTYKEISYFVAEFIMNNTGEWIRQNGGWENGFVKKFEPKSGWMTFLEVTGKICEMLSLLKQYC
# test.details: Bfl1 and BclB peptide interaction inhibitors, dose response, biochemical, powder compounds, wildtype and mutant Bfl1, panel (AID 504598)
# run.conditions: Bfl1/BclB peptide binding displacement assay, Bfl1 wildtype, deteriorated Bfl1 protein
Define the label as True when EC50 is strictly less than 400 nM and as False in all remaining cases.

See these solved cases before continuing.
# structure.smiles, classification
measured = [
    ("Cc1cc(N)ccc1N1CCCC1", "False"),
    ("O=C(Nc1ccc2nc(-c3ccco3)c(-c3ccco3)nc2c1)N1CCCCCC1", "True"),
    ("COc1cccc(-c2cc(C(F)(F)F)nc(S(C)(=O)=O)n2)c1", "True"),
    ("Cc1ccc(-c2cc(-c3ccc(C)o3)nc(N)c2C#N)cc1", "False"),
    ("Oc1ccc(NCc2ccccc2OCc2ccccc2)cc1", "False"),
]

# check: EC50 < 400 nM for CCOC(=O)CS(=O)(=O)c1nc(-c2ccccc2)cc(C(F)(F)F)n1
True

# check: EC50 < 400 nM for O=C1C(Cl)=C(N2CCN(c3ccccc3[N+](=O)[O-])CC2)C(=O)c2ccccc21
False
